Target: T1, interleukin 18 binding protein (IL-18BP) (UniProt O95998 31-194)
T1 sequence (looked up): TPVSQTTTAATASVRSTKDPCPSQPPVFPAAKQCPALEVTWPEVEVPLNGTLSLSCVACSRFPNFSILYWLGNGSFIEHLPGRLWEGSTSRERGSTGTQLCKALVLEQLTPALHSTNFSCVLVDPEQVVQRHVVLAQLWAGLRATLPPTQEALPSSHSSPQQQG
Assay: cell-based or functional assay
The threshold is 20. Values of Ratio (HEK-blue EC50, + 100 nM BP against - BP) beneath it are tagged TRUE; values meeting or exceeding it are tagged FALSE.

Check out these entries, answers already filled in.
BINDER	CLASS
IL-18 variant E6G, D54A, S55K, T63S, N91K, Q114R (ligand) YFGKLGSKLSVIRNLNDQVLFIDQGNRPLFEDMTDSDMRDNAPRTIFIISMYKAKQPRGMAVSISVKSEKISTLSSENKIISFKEMNPPDKIKDTKSDIIFFQRSVPGHDNKMRFESSSYEGYFLASEKERDLFKLILKKEDELGDRSIMFTVQNED	FALSE
IL-18 variant G3Q, E6H, D54N, S55I, T63S, N91V (ligand) YFQKLHSKLSVIRNLNDQVLFIDQGNRPLFEDMTDSDMRDNAPRTIFIISMYKNIQPRGMAVSISVKSEKISTLSSENKIISFKEMNPPDVIKDTKSDIIFFQRSVPGHDNKMQFESSSYEGYFLASEKERDLFKLILKKEDELGDRSIMFTVQNED	TRUE
IL-18 variant G3L, E6Q, D54Y, S55P, T63S, N91S, R104Q (ligand) YFLKLQSKLSVIRNLNDQVLFIDQGNRPLFEDMTDSDMRDNAPRTIFIISMYKYPQPRGMAVSISVKSEKISTLSSENKIISFKEMNPPDSIKDTKSDIIFFQQSVPGHDNKMQFESSSYEGYFLASEKERDLFKLILKKEDELGDRSIMFTVQNED	FALSE
IL-18 variant G3Y, E6N, N91Y, R104S (ligand) YFYKLNSKLSVIRNLNDQVLFIDQGNRPLFEDMTDSDMRDNAPRTIFIISMYKDSQPRGMAVTISVKSEKISTLSSENKIISFKEMNPPDYIKDTKSDIIFFQSSVPGHDNKMQFESSSYEGYFLASEKERDLFKLILKKEDELGDRSIMFTVQNED	FALSE
IL-18 variant E6D, D54T, S55W, T63S, N91S, R104T (ligand) YFGKLDSKLSVIRNLNDQVLFIDQGNRPLFEDMTDSDMRDNAPRTIFIISMYKTWQPRGMAVSISVKSEKISTLSSENKIISFKEMNPPDSIKDTKSDIIFFQTSVPGHDNKMQFESSSYEGYFLASEKERDLFKLILKKEDELGDRSIMFTVQNED	TRUE

Prompt: Please state whether Ratio (HEK-blue EC50, + 100 nM BP against - BP) is below 20 for IL-18 variant G3I, E6Q, N91M, R104Y (ligand) YFIKLQSKLSVIRNLNDQVLFIDQGNRPLFEDMTDSDMRDNAPRTIFIISMYKDSQPRGMAVTISVKSEKISTLSSENKIISFKEMNPPDMIKDTKSDIIFFQYSVPGHDNKMQFESSSYEGYFLASEKERDLFKLILKKEDELGDRSIMFTVQNED
Response: FALSE

Source: patent US20240182536A1
